Known inhibition of a selection of molecules
target.or.test.system: Pantothenate synthetase (Mycobacterium tuberculosis (strain ATCC 25618 / H37Rv))
measurement.description: Coupled enzyme confirmation of inhibitors against recombinant Mtb PanC (AID 375);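 further: 0% = full reaction with vehicle and 100% = no enzyme background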
assay.conditions: coupled enzyme assay; at 10 µM, active compounds read high
Active and inactive are the calls of the source. How the calls were made is not given here.
recorded.endpoint: inhibition

[[record]]
molecule = "Cc1nc2ccccc2c2oc(C(=O)N3CCN(C(=O)c4ccco4)CC3)cc12"
data_value = "0% (inactive)"

[[record]]
molecule = "COc1ccc2c(c1OC)C(=O)OC2C1c2c(cc3c(c2OC)OCO3)CCN1C (stereo not drawn)"
data_value = "0% (inactive)"

[[record]]
molecule = "CCSc1nc2ccccc2n1CC(N)=O"
data_value = "4% (inactive)"

[[record]]
molecule = "O=C(CCn1c(=O)sc2ccccc21)Nc1nccs1"
data_value = "0% (inactive)"

[[record]]
molecule = "O=c1[nH]c(=O)n([C@H]2C[C@H](O)[C@@H](CO)O2)cc1F"
data_value = "0% (inactive)"

[[record]]
molecule = "O=C(COc1ccc(F)cc1)Nc1ccc(-n2cnnn2)cc1"
data_value = "0% (inactive)"

[[record]]
molecule = "COCCNC(=O)CC(NS(=O)(=O)c1ccc(NC(C)=O)cc1)C(C)C (stereo not drawn)"
data_value = "0% (inactive)"

[[record]]
molecule = "CC(=O)c1ccccc1OCCn1nnc(-c2ccc(C)cc2)n1"
data_value = "0% (inactive)"

[[record]]
molecule = "COCCn1c(C)cc(C(=O)CSc2nc3ccccc3c(=O)[nH]2)c1C"
data_value = "0% (inactive)"

[[record]]
molecule = "CCCCN(C)C(=O)c1ccc(CS(=O)(=O)c2ccccc2C)o1"
data_value = "2% (inactive)"

[[record]]
molecule = "COc1cc2c(cc1OC)CN(C(=O)CSc1nc3[nH]ncc3c(=O)n1-c1ccccc1)CC2"
data_value = "2% (inactive)"

[[record]]
molecule = "Clc1ccc(-c2nnc3sc(-c4ccc(Br)o4)nn23)cc1"
data_value = "0% (inactive)"

[[record]]
molecule = "O=C(Nc1cccc2ccccc12)c1cnccn1"
data_value = "0% (inactive)"

[[record]]
molecule = "CCc1cccc2c(=O)c(C(=O)N3CCCCCC3)c[nH]c12"
data_value = "0% (inactive)"

[[record]]
molecule = "Cc1nc2ccccc2n1CCC(=O)Nc1cccc(F)c1"
data_value = "4% (inactive)"

[[record]]
molecule = "COc1ccccc1-n1c(O)c(C=NCc2ccc3c(c2)OCO3)c(=O)[nH]c1=O"
data_value = "7% (inactive)"

[[record]]
molecule = "O=C(NC1CCS(=O)(=O)C1)c1c(NC(=O)C2COc3ccccc3O2)sc2c1CCCC2 (stereo not drawn)"
data_value = "0% (inactive)"

[[record]]
molecule = "COCCSc1ccccc1C(=O)Nc1nncs1"
data_value = "0% (inactive)"

[[record]]
molecule = "CC1CCN(C(=O)CSc2nc3ccccc3[nH]2)CC1"
data_value = "0% (inactive)"

[[record]]
molecule = "COc1ccc2c(c1)C(=NO)c1cc(OC)ccc1-2"
data_value = "0% (inactive)"

[[record]]
molecule = "CN(CCNS(=O)(=O)c1ccc2c(c1)oc(=O)n2C)Cc1ccccc1"
data_value = "0% (inactive)"

[[record]]
molecule = "Cc1cc(Nc2ccc(C(=O)O)cc2)n2nc(C)nc2n1"
data_value = "7% (inactive)"

[[record]]
molecule = "O=C(Nc1ccccc1C(=O)N1CCOCC1)C1CCC(=O)N1C1CCCC1 (stereo not drawn)"
data_value = "1% (inactive)"

